- assayedSystem: Endothelial lipase (EL) (Homo sapiens (Human), UniProt Q9Y5X9)
- Sequence (Q9Y5X9 21-500): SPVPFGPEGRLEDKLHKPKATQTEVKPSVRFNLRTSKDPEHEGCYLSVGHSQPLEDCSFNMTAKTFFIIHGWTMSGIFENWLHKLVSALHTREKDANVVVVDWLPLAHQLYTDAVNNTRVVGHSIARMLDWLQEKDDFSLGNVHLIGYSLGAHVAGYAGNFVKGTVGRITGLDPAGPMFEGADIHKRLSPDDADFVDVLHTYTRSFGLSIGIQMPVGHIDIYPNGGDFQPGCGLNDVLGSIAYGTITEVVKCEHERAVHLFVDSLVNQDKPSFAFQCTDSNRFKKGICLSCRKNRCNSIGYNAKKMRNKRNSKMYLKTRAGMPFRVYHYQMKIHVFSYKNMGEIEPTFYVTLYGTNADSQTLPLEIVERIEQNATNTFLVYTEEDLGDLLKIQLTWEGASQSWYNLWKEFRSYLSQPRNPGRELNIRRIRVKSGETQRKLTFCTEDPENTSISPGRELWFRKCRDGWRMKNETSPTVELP
- methodDescription: Endothelial lipase (EL) enzymatic assay with fluorescent substrate A10070 in DMPG vesicles
- Format: biochemical
- Protocol: Endothelial lipase (EL) and hepatic lipase (HL) activities were measured using a fluorescent substrate, A10070, (Invitrogen, CA) doped into an artificial vesicle containing DMPG (Avanti Polar Lipids) as the excipient. […] The enzymatic assay was measured using 384-well white Optiplates. […] The reaction rates were measured on a Gemini plate reader with an excitation wavelength of 490 nm and an emission wavelength of 530 nm. […]
pIC50: −log10 of the molar value.
experimentalEndpoint: pIC50

compound	recordedResult
O=C(CNC(=O)C(c1nc2cc(F)c(-c3ccc(NC(=O)OCc4ccccc4)cc3)cc2s1)S(=O)(=O)CC1CC1)NC1CC1 (stereo not shown)	8.52

P. O=C(CNC(=O)C(c1nc2cc(F)c(-c3cncnc3)cc2s1)S(=O)(=O)c1cccc(-c2cncnc2)c1)NC1CC1 (stereo not shown)
Q. Cc1ccc(-c2cc3sc(C(C(=O)NCC(=O)NC4CC4)S(C)(=O)=O)nc3cc2F)cn1 (stereo not shown)
Query: In terms of reported pIC50, does P or Q have the smaller number? Selection: enter the item's label.
Result: P

a. COCCS(=O)(=O)C(C(=O)NCC(=O)NC1CC1)c1nc2cc(F)c(-c3ccc(-c4cc(O)n[nH]4)cc3)cc2s1 (stereo not shown)
b. COCCS(=O)(=O)C(C(=O)NCC(=O)NC1CC1)c1nc2cc(-c3cccc(OC)c3)ccc2s1 (stereo not shown)
c. CS(=O)(=O)C(C(=O)NCC(=O)NC1CC1)c1nc2ccc(-c3ccc(=O)n(-c4ccccc4)c3)cc2s1 (stereo not shown)
Query: Arrange the 3 compounds by rising pIC50, starting with the smallest. // format: requested-order list of labels
Result: b, a, c
(b: 7.09, a: 7.31, c: 7.70)

P. COCCNC(=O)c1ccc(-c2ccc3nc(C(C(=O)NCC(=O)NC4CC4)S(C)(=O)=O)sc3c2)cc1OC (stereo not shown)
Q. COC(=O)Nc1ccc(-c2cc3sc(C(C(=O)NCC(=O)NC4CC4)S(=O)(=O)CC4CC4)nc3cc2F)cc1 (stereo not shown)
Query: In terms of reported pIC50, does P or Q have the smaller number? Selection: enter the item's label.
Result: P
(P: 7.28, Q: 8.52)

I. COCCS(=O)(=O)C(C(=O)NCC(=O)NC1CC1)c1nc2cc(F)c(-c3cccc(N(C)C(=O)OC)c3)cc2s1 (stereo not shown)
II. CS(=O)(=O)C(C(=O)NCC(=O)NC1CC1)c1nc2cc(F)c(-c3ccccc3)cc2s1 (stereo not shown)
Query: In terms of reported pIC50, does I or II have the smaller number? Selection: enter the item's label.
Result: I

1. COCCS(=O)(=O)C(C(=O)NCC(=O)NC1CC1)c1nc2ccc(-c3ccc(C(=O)N4CC(C)(O)C4)cc3)cc2s1 (stereo not shown)
2. COCCS(=O)(=O)C(C(=O)NCC(=O)NC1CC1)c1nc2cc(-c3cccnc3C(F)(F)F)ccc2s1 (stereo not shown)
Query: Hi team, can someone confirm which has the larger pIC50: 1 or 2 ? Thanks. Selection: enter the item's label.
Result: 2
(2: 8.30, 1: 7.92)

A. CC(C)n1cc(-c2cc(F)c3nc(C(C(=O)NCC(=O)NC4CC4)S(=O)(=O)c4ccc(F)cc4)sc3c2)ccc1=O (stereo not shown)
B. CC(C)S(=O)(=O)C(C(=O)NCC(=O)NC1CC1)c1nc2cc(-c3ccc(F)nc3)ccc2s1 (stereo not shown)
C. COCCS(=O)(=O)C(C(=O)NCC(=O)NC1CC1)c1nc2ccc(-c3ccc(C(=O)NCC(C)(C)OC)cc3)cc2s1 (stereo not shown)
Query: Arrange the 3 compounds by rising pIC50, starting with the smallest. // format: requested-order list of labels
Result: B, A, C

P. COCCS(=O)(=O)C(C(=O)NCC(=O)NC1CC1)c1nc2ccc(-c3ccn(C)c(=O)c3)cc2s1 (stereo not shown)
Q. Cn1ccc(-c2ccc3sc(C(C(=O)NCC(=O)NC4CC4)S(=O)(=O)c4ccccc4)nc3c2)cc1=O (stereo not shown)
R. COCCS(=O)(=O)C(C(=O)NCC(=O)NC1CC1)c1nc2cc(-c3cncnc3C(C)C)ccc2s1 (stereo not shown)
S. CN(C)S(=O)(=O)C(C(=O)NCC(=O)NC1CC1)c1nc2c(F)cc(-c3cccc(NC(=O)OCc4ccccc4)c3)cc2s1 (stereo not shown)
T. COCCS(=O)(=O)C(C(=O)NCC(=O)NC1CC1)c1nc2cc(-c3cccc(F)n3)ccc2s1 (stereo not shown)
Query: Arrange the 5 compounds by rising pIC50, starting with the smallest. // format: requested-order list of labels
Result: R, T, Q, P, S
(R: 6.53, T: 6.77, Q: 7.32, P: 7.89, S: 8.70)

1. COCCS(=O)(=O)C(C(=O)NCC(=O)NC1CC1)c1nc2cc(-c3cncc(OC)c3)ccc2s1 (stereo not shown)
2. COCCS(=O)(=O)C(C(=O)NCC(=O)NC1CC1)c1nc2cc(-c3ccc(-c4ccn[nH]4)cc3)c(F)cc2s1 (stereo not shown)
Query: In terms of reported pIC50, does 1 or 2 have the smaller number? Selection: enter the item's label.
Result: 2
(2: 7.74, 1: 7.96)

Provenance of the data: patent US10173991B2
